# credit: patent US20260297172

assayed.system: T1, S100A8/A9 (human, UniProt P05109)
T1 chain 1: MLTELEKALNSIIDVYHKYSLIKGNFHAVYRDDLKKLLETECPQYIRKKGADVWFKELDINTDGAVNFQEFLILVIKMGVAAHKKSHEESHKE
T1 chain 2: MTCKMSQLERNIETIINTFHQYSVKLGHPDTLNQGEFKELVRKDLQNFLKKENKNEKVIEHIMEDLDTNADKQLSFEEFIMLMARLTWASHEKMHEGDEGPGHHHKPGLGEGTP
method.summary: BLI
parameter.measured: Kd (pM)

INSERT INTO results (binder, test_value) VALUES
  ('8H6-HC (antibody, V domains shown) VH: CQSLEESGGDLVKPEGSLTLTCKASGFSFSSGCWVCWVRQAPGKGLEWIACIYTGDGDTYYANWARGRFTVSRTSSTTVTLQLTSLTAADTATYFCASPQPGDITYLGFWGPGTLVTVSS VL: DIVMTQTPASVSEPVGGTVTIKCQASQNINSYLSWYQQRPGQPPKLLISLASDLASGVPSRFKGSESGTDYTLTISDLECADAATYYCQGYFADSGSSGRSWAFGGGTEVVVQG', 1370),
  ('ROIS-1 (antibody, V domains shown) VH: NVQLVESGGGLIHPGGSLSLSCKASGFSFSSGCWVCWVRQAPGKGLEWVACIYTGDGDTYYADSVRGRFTISRTSSKTTVYLQMNSLRAEDTAVYYCASPQPGDITYLGFWGQGTLVTVSS VL: DIHMTQSPSSLSASVGDTVTITCQASQNINSYLSWYQQEPGKAPKLLISLASDLASGVPSRFSGSESGTDYTLTISSLQPEDFATYYCQGYFADSGSSGRSWAFGQGTKVEIKR', 789),
  ('ROIS-2 (antibody, V domains shown) VH: NVQLVESGGGLIHPGGSLSLSCKASGFSFSSGCWVCWVRQAPGKGLEWVACIYTGDGDTYYADSVKGRFTISRTSSKTTVYLQMNSLRAEDTAVYYCASPQPGDITYLGFWGQGTLVTVSS VL: DIHMTQSPSSLSASVGDTVTITCQASQNINSYLSWYQQKPGKAPKLLISLASDLASGVPSRFSGSESGTDYTLTISSLQPEDFATYYCQGYFADSGSSGRSWAFGQGTKVEIKR', 608);
